readout-type: melting point

- compound: "O=C(NC1CCn2c(CCc3ccccc3)nc3cccc1c32)c1ccccn1 (stereo not given)"
  readout-type: "melting point"
  assay-value: "173 °C"
- compound: "c1ccc(NCP(CNc2ccccc2)CNc2ccccc2)cc1"
  readout-type: "melting point"
  assay-value: "87 to 88 °C"
- compound: "COC(=O)N(C)CCCCCC(=O)OC[C@@H]1CC(c2ccc(-c3ccc(N4C[C@H](Cn5ccnn5)OC4=O)cc3F)cn2)=NO1"
  readout-type: "melting point"
  assay-value: "103 °C"
- compound: "Cc1cc(O)cc(C)c1C=O"
  readout-type: "melting point"
  assay-value: "190 °C"
- compound: "COC(=O)CC1CCN(C(=O)N2CCC(c3ccc(C#N)cc3)CC2)CC1"
  readout-type: "melting point"
  assay-value: "115 to 118 °C"
